Entry source: PubChem BioAssay (EPA / NIEHS)

- ASSAY_DETAILS: ATG_PBREM_CIS: Attagene CIS-FACTORIAL HepG2 Assay for human Phenobarbital-responsive Enhancer Module (PBREM) (AID 2282955)
- CONDITION_INFO: HepG2 PBREM cis-reporter, Attagene multiplexed transcription; actives raise or lower the signal
Calls of active or inactive are those of the source. Rule for the calls: active = hit-call score of the fitted dose curve at least 0.9, where 1 is the maximum; inactive = score below 0.9.
Hello, when you answer, please use one of the following outcomes: 1 (yes) (active), 0 (no) (inactive)

Take a look at these entries with their results.
- MOLECULE: "COP(=S)(OC)Oc1ccc([N+](=O)[O-])c(C)c1"
  DISCRETE_LABEL: "0 (no)"
- MOLECULE: "O=C(O)c1c(Cl)ccc2cc(Cl)cnc12"
  DISCRETE_LABEL: "0 (no)"
- MOLECULE: "CCOP(=O)(OCC)Oc1nc(Cl)c(Cl)cc1Cl"
  DISCRETE_LABEL: "0 (no)"
- MOLECULE: "Nc1c(Cl)c(F)nc(OCC(=O)O)c1Cl"
  DISCRETE_LABEL: "0 (no)"
- MOLECULE: "CCCCOCN(C(=O)CCl)c1c(CC)cccc1CC"
  DISCRETE_LABEL: "1 (yes)"
- MOLECULE: "COCC(=O)N(c1c(C)cccc1C)C(C)C(=O)OC (stereo not given)"
  DISCRETE_LABEL: "0 (no)"
- MOLECULE: "COP(=S)(OC)SCn1nnc2ccccc2c1=O"
  DISCRETE_LABEL: "1 (yes)"
- MOLECULE: "Cc1c(COC(=O)[C@@H]2[C@H](/C=C(\\Cl)C(F)(F)F)C2(C)C)cccc1-c1ccccc1"
  DISCRETE_LABEL: "1 (yes)"
- MOLECULE: "COC(=O)NS(=O)(=O)c1ccc(N)cc1"
  DISCRETE_LABEL: "0 (no)"
- MOLECULE: "CC(C)C1(C)N=C(c2ncccc2C(=O)O)NC1=O (stereo not given)"
  DISCRETE_LABEL: "0 (no)"

Alright, here's another molecule for you.
Look up the recorded call for O=C1C2CC=CCC2C(=O)N1SC(Cl)(Cl)Cl (stereo not given) in this test.
0 (no)

###

- Read-out: ABC Transporter (ABCB1), ABCB1 (gene 5243)
- ASSAY_DETAILS: CLD_ABCB1_6hr: CellzDirect (CLD) Gene Expression Assay for ABC Transporter (ABCB1) at 6 hours (AID 2283659);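 note: hits raise ABCB1 transcript above the DMSO vehicle baseline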
Inconclusive results are not listed. The source made the active and inactive calls. The calls were made as follows: active = hit-call score of the fitted dose curve at least 0.9, where 1 is the maximum; inconclusive = response in the unintended direction; inactive = score below 0.9.
MEASURE_NAME: outcome

- COMPOUND: "COP(=S)(OC)SCn1nnc2ccccc2c1=O"
  outcome: "inactive"
- COMPOUND: "Cc1ccc(N=CN(C)C=Nc2ccc(C)cc2C)c(C)c1"
  outcome: "inactive"
- COMPOUND: "Cc1c(COC(=O)[C@@H]2[C@H](/C=C(\\Cl)C(F)(F)F)C2(C)C)cccc1-c1ccccc1"
  outcome: "inactive"
- COMPOUND: "CCOc1nc(C(Cl)(Cl)Cl)ns1"
  outcome: "inactive"
- COMPOUND: "C=CCOC(=O)C(C)(C)OC(=O)c1cc(-n2c(=O)cc(C(F)(F)F)n(C)c2=O)ccc1Cl"
  outcome: "inactive"

What measured outcome goes with `O=C(Nc1ccccc1-c1ccc(Cl)cc1)c1cccnc1Cl` ?
inactive

What measured outcome goes with `C=C(C)CN(CC)c1c([N+](=O)[O-])cc(C(F)(F)F)cc1[N+](=O)[O-]` ?
inactive

What measured outcome goes with `CCSC(=O)N1CCCCCC1` ?
inactive

What measured outcome goes with `Nc1c(Cl)c(Cl)nc(C(=O)O)c1Cl` ?
inactive

What measured outcome goes with `Clc1cccc(C(Cl)(Cl)Cl)n1` ?
inactive

What measured outcome goes with `CO/N=C(/C1=NOCCO1)c1ccccc1Oc1ncnc(Oc2ccccc2Cl)c1F` ?
inactive

What measured outcome goes with `Cc1nc(N(C)C)nc(OC(=O)N(C)C)c1C` ?
inactive

What measured outcome goes with `Cn1c(-c2ccccc2)cc(-c2ccccc2)[n+]1C` ?
inactive

What measured outcome goes with CCCC(=NOCC)C1=C(O)CC(CC(C)SCC)CC1=O (configuration not stated) ?
inactive

What measured outcome goes with `CCOP(=O)(OCC)Oc1nc(Cl)c(Cl)cc1Cl` ?
inactive

What measured outcome goes with `COP(=S)(OC)Oc1ccc([N+](=O)[O-])c(C)c1` ?
inactive

###

- Read-out: xenobiotic metabolism (CYP1A2), CYP1A2 (gene 1544)
- ASSAY_DETAILS: CLD_CYP1A2_6hr: CellzDirect (CLD) Gene Expression Assay for xenobiotic metabolism (CYP1A2) at 6 hours (AID 2283663)
Inconclusive results are not listed. Calls of active or inactive are those of the source. Rule for the calls: active = hit-call score of the fitted dose curve at least 0.9, where 1 is the maximum; inconclusive = response in the unintended direction; inactive = score below 0.9.
Hello, when you answer, please use one of the following outcomes: YES (active), NO (inactive)

- MOLECULE: "O=C(O)c1c(Cl)ccc2cc(Cl)cnc12"
  DISCRETE_LABEL: "NO"
- MOLECULE: "CC(C)Oc1cccc(NC(=O)c2ccccc2C(F)(F)F)c1"
  DISCRETE_LABEL: "NO"
- MOLECULE: "Clc1cccc(C(Cl)(Cl)Cl)n1"
  DISCRETE_LABEL: "NO"
- MOLECULE: "OC(c1ccc(Cl)cc1)(c1ccc(Cl)cc1)C(Cl)(Cl)Cl"
  DISCRETE_LABEL: "NO"
- MOLECULE: "Cc1cc(C)nc(Nc2ccccc2)n1"
  DISCRETE_LABEL: "YES"

Look up the recorded call for `CC(C)N1C(=O)c2ccccc2NS1(=O)=O` in this test.
NO

Look up the recorded call for CC1(C)C(C(=O)OC(C#N)c2cccc(Oc3ccccc3)c2)C1(C)C (stereo not drawn) in this test.
NO

Look up the recorded call for CCCCC(O)(Cn1cncn1)c1ccc(Cl)cc1Cl (stereo not drawn) in this test.
NO

###

- ASSAY_DETAILS: CCTE_Shafer_MEA_dev_per_network_spike_spike_percent: CCTE's Neural Network Formation Assay for Percent of Spikes in a Network Spike, Shafer Lab (AID 2284054)
The source made the active and inactive calls. The calls were made as follows: active = hit-call score of the fitted dose curve at least 0.9, where 1 is the maximum; inactive = score below 0.9.
Hello, when you answer, please use one of the following outcomes: active, inactive

- COMPOUND: "C=C(C)CN(CC)c1c([N+](=O)[O-])cc(C(F)(F)F)cc1[N+](=O)[O-]"
  DISCRETE_LABEL: "active"
- COMPOUND: "O=C(Nc1ccccc1-c1ccc(Cl)cc1)c1cccnc1Cl"
  DISCRETE_LABEL: "inactive"
- COMPOUND: "CCNC(=O)NC(=O)C(C#N)=NOC"
  DISCRETE_LABEL: "inactive"

Look up the recorded call for `CS(=O)(=O)c1ccc(C(=O)C2C(=O)CCCC2=O)c([N+](=O)[O-])c1` in this test.
inactive

Look up the recorded call for `COC(=O)N(C(=O)N1CO[C@@]2(C(=O)OC)Cc3cc(Cl)ccc3C2=N1)c1ccc(OC(F)(F)F)cc1` in this test.
active

Look up the recorded call for CC(C)=CC1C(C(=O)OCc2coc(Cc3ccccc3)c2)C1(C)C (stereo unspecified) in this test.
inactive

Look up the recorded call for CC(C)(C)C(=O)C(Oc1ccc(Cl)cc1)n1cncn1 (stereo unspecified) in this test.
active

Look up the recorded call for `N#CN=C1SCCN1Cc1ccc(Cl)nc1` in this test.
inactive

###

- MEASURED_TARGET: guinea pig Sigma Receptor, Non-selective Binding, SIGMAR1 (gene 100135589) (UniProt Q60492)
- Sequence (Q60492 whole entry, looked up): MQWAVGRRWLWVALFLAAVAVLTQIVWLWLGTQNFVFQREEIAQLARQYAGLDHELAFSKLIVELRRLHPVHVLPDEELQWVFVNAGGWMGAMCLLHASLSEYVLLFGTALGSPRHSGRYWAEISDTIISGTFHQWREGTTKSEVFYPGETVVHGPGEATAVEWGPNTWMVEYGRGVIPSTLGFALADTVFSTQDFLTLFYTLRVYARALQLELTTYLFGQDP
- ASSAY_DETAILS: NVS_OR_gSIGMA_NonSelective: NovaScreen (NVS) Nuclear Receptor Binding Assay for guinea pig Sigma Receptor, Non-selective Binding (AID 2283367)
Calls of active or inactive are those of the source. How the source made its calls: active means hit-call score of the fitted dose curve at least 0.9, where 1 is the maximum; inconclusive means response in the unintended direction; inactive means score below 0.9.
Hello, when you answer, please use one of the following outcomes: active, inactive

- COMPOUND: "CC1(C)CON(Cc2ccccc2Cl)C1=O"
  DISCRETE_LABEL: "active"

Look up the recorded call for `CSC(=O)c1c(C(F)F)nc(C(F)(F)F)c(C(=O)SC)c1CC(C)C` in this test.
inactive

Look up the recorded call for CCOC(=O)C(C)OC(=O)c1cc(Oc2ccc(C(F)(F)F)cc2Cl)ccc1[N+](=O)[O-] (stereo unspecified) in this test.
inactive

Look up the recorded call for `COP(=S)(OC)Oc1ccc([N+](=O)[O-])c(C)c1` in this test.
active

Look up the recorded call for CCCN(CC)CC1COC2(CCC(C(C)(C)C)CC2)O1 (stereo unspecified) in this test.
active

Look up the recorded call for CCN(CC)C(=O)C(C)Oc1cccc2ccccc12 (stereo unspecified) in this test.
active

###

- ASSAY_DETAILS: ATG_GLI_CIS: Attagene CIS-FACTORIAL HepG2 Assay for human Zinc Finger Protein GLI1 (AID 2282945)
- CONDITION_INFO: HepG2, Attagene cis-factorial reporter mRNA, GLI element; actives raise or lower the signal
Calls of active or inactive are those of the source. How the source made its calls: active means hit-call score of the fitted dose curve at least 0.9, where 1 is the maximum; inactive means score below 0.9.
MEASURE_NAME: outcome

Here's what some known entries look like.
- COMPOUND: "O=C1C2CC=CCC2C(=O)N1SC(Cl)(Cl)Cl (configuration not stated)"
  ASSAY_RESULT: "inactive"
- COMPOUND: "CN/C(=N\\[N+](=O)[O-])NCc1cnc(Cl)s1"
  ASSAY_RESULT: "inactive"
- COMPOUND: "N#Cc1c(Cl)cccc1Cl"
  ASSAY_RESULT: "inactive"
- COMPOUND: "CC(C)N1C(=O)N(c2ccccc2)CSC1=NC(C)(C)C"
  ASSAY_RESULT: "inactive"
- COMPOUND: "CC(C)NC(=O)N1CC(=O)N(c2cc(Cl)cc(Cl)c2)C1=O"
  ASSAY_RESULT: "inactive"

What measured outcome goes with `Nc1c(Cl)c(Cl)nc(C(=O)O)c1Cl` ?
inactive

What measured outcome goes with `CCOP(=S)(OCC)Oc1nc(Cl)n(C(C)C)n1` ?
inactive
